Molecular target: UniProt O00329
Sequence (O00329 whole entry): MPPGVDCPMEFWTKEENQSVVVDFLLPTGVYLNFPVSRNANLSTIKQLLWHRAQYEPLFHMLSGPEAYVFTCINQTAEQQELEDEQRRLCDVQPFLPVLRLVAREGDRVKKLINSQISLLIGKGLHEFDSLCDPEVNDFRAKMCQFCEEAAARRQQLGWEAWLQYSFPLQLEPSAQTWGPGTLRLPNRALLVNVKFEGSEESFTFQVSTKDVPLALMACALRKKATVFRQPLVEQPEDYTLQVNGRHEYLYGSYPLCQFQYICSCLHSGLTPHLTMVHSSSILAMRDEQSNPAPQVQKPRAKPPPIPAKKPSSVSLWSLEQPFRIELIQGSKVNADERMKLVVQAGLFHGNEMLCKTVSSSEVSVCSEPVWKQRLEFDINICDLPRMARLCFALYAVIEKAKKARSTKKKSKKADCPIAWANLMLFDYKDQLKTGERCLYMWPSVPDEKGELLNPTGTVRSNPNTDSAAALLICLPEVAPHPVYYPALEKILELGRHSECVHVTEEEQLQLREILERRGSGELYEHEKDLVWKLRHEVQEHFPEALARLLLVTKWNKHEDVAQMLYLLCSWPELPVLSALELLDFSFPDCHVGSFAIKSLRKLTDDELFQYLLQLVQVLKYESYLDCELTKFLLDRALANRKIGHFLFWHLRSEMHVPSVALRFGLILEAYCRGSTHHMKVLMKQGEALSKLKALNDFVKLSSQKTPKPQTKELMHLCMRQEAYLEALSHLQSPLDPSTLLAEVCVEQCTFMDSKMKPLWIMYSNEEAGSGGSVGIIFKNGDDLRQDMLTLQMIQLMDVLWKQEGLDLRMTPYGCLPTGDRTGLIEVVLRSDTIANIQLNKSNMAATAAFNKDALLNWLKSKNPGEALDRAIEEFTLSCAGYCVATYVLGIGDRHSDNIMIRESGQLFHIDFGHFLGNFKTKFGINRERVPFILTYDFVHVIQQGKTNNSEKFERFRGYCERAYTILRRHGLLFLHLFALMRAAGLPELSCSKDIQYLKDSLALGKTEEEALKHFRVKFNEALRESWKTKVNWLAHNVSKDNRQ
Sequence (P27986 whole entry partner): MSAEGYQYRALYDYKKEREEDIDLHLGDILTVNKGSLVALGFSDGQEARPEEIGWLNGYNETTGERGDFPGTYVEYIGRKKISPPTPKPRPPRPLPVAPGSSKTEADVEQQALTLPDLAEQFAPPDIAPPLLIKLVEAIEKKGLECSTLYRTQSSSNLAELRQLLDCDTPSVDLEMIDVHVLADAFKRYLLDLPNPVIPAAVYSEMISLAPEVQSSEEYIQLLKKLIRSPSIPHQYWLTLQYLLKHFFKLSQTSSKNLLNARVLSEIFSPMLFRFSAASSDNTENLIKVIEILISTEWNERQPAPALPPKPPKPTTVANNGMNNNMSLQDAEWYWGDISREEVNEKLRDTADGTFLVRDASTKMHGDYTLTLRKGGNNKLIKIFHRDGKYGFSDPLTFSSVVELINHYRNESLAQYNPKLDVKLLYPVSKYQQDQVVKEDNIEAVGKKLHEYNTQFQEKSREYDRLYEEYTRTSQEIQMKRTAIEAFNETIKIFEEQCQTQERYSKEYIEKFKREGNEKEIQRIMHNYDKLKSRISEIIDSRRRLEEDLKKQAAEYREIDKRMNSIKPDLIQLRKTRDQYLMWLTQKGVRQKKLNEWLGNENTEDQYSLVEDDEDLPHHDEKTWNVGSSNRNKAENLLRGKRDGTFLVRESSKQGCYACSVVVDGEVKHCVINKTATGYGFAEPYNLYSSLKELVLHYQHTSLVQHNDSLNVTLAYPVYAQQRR
Experiment: RAJI p110 δ assay (phospho-AKT in anti-human IgM stimulated RAJI cells)
pIC50: −log10 of the molar value.
Measured quantity: pIC50

Query: Fill in pIC50 for record `C[C@H](NC(=O)c1c(N)nn2cccnc12)c1cc2cccc(C#Cc3ccn[nH]3)c2c(=O)n1-c1ccccc1`
Reply: 6.30 to 7.00

---

Assay: Pharmacokinetics of Compound 88 in female C57 mice, PO
Type: in vivo, mouse
Conditions: mouse, plasma; female C57 mice, 7.5 mg/kg PO NMP; read-out: AUC0_INF
Measured quantity: AUC (ng·h/mL)
Record the value in ng·h/mL, omitting the unit from your answer.

Query: Fill in AUC for record `Cc1c(C#Cc2cccc3nc([C@H](C)NC(=O)c4c(N)nn5cccnc45)n(-c4ccccc4)c(=O)c23)cnn1C`
Reply: 20700

---

Task for the reader: assign each of the following compounds its reported EC50.
Tested on: CXCL12-induced T cell migration
Assay: CXCL12-induced T-cell migration in CLL PBMCs (transwell)
Type: cell-based
Settings: Homo sapiens, T-cell subset CD8+, read-out: EC50 (nM), CXCL12 induced T-cell migration
Record the value in nM, omitting the unit from your answer.

Query: Fill in EC50 for record CC(C)n1c([C@H](C)Nc2ncnc(N)c2C#N)cc2cccc(-c3ccc(=O)n(C)c3)c2c1=O [Compound AA, reference compound]
Reply: 423

Query: Fill in EC50 for record `C[C@H](NC(=O)c1c(N)nn2cccnc12)c1cc2cccc(C#Cc3cnn(C)c3)c2c(=O)n1-c1ccccc1`
Reply: 13

---

Target: UniProt:Q9JHG7
Sequence (Q9JHG7 whole entry): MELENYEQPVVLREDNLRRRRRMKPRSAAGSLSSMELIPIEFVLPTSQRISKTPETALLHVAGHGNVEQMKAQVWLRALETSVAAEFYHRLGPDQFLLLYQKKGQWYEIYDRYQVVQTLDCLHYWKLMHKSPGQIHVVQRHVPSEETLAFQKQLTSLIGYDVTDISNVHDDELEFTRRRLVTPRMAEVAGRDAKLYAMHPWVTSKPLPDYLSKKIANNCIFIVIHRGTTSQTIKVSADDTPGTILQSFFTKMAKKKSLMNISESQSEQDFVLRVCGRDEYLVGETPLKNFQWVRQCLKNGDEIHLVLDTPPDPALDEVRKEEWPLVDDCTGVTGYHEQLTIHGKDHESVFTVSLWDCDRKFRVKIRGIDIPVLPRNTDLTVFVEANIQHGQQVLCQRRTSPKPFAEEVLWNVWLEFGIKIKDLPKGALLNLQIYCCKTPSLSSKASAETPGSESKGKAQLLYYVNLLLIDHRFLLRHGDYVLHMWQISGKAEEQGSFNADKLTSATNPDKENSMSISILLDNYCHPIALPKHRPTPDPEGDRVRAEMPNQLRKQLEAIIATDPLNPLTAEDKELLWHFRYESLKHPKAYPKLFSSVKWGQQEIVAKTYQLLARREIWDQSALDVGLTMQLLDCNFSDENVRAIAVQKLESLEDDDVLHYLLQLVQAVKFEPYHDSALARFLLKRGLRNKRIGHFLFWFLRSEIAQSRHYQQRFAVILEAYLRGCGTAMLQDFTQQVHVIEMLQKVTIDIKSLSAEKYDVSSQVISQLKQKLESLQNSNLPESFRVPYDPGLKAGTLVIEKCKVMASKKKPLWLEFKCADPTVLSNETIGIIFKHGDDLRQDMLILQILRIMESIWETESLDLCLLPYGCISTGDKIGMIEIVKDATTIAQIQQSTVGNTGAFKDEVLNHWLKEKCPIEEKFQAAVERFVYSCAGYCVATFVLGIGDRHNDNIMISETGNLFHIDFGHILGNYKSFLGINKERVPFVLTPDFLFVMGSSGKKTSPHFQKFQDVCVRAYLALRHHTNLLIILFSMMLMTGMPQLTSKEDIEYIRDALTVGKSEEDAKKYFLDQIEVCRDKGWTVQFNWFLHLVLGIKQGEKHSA
Assay: Raw264.7 p110 γ assay (C5a-mediated phospho-AKT in RAW264.7 macrophages)
Details: phospho-AKT
Measured quantity: IC50

Query: Fill in IC50 for record C[C@H](NC(=O)c1c(N)nn2cccnc12)c1cc2cccc(C#Cc3ccn[nH]3)c2c(=O)n1-c1ccccc1 [Compound 43]
Reply: 1 to 50 nM

---

Tested on: CXCL12-induced T cell migration
Test: CXCL12-induced T-cell migration in CLL PBMCs (transwell)
Type: cell-based
Details: Homo sapiens, T-cell subset CD3+, read-out: EC50 (nM), CXCL12 induced T-cell migration
Task for the reader: assign each of the following compounds its reported EC50.
Record the value in nM, omitting the unit from your answer.

Query: Give EC50 for `C[C@H](NC(=O)c1c(N)nn2cccnc12)c1cc2cccc(C#Cc3cnn(C)c3)c2c(=O)n1-c1ccccc1` tested on CXCL12-induced T cell migration.
Reply: 17

Query: Give EC50 for CC(C)n1c([C@H](C)Nc2ncnc(N)c2C#N)cc2cccc(-c3ccc(=O)n(C)c3)c2c1=O [Compound AA, reference compound] tested on CXCL12-induced T cell migration.
Reply: 630
